The following binders are shown together with reported Relative Activity (ratio of variant IC50/WT IC50), chromogenic thrombin inhibition assay values.
targetOrSystem: thrombin
protocolNotes: cell-based or functional assay
Hi! Could you send only the number? It should be in ratio, unit omitted.

Examples with answers:
binder: hirudin mutein M 56 (I29N) (other) VVYTDCTESGQNLCLCEGSVVCGQGNKCNLGSDGEKNQCVTGEGTPKPESHNDGDFEEIPEEYLQ
valueReported: 1
--
binder: hirudin mutein M 68 (L30P) (other) VVYTDCTESGQNLCLCEGSVVCGQGNKCIPGSDGEKNQCVTGEGTPKPESHNDGDFEEIPEEYLQ
valueReported: 1.83
--
binder: hirudin mutein M 69 (L30Q) (other) VVYTDCTESGQNLCLCEGSVVCGQGNKCIQGSDGEKNQCVTGEGTPKPESHNDGDFEEIPEEYLQ
valueReported: 1
--
binder: hirudin mutein M 51 (I29D) (other) VVYTDCTESGQNLCLCEGSVVCGQGNKCDLGSDGEKNQCVTGEGTPKPESHNDGDFEEIPEEYLQ
valueReported: 1
--
binder: hirudin mutein M 41 (L15T) (other) VVYTDCTESGQNLCTCEGSVVCGQGNKCILGSDGEKNQCVTGEGTPKPESHNDGDFEEIPEEYLQ
valueReported: 0.4

What does the data say about its Relative Activity (ratio of variant IC50/WT IC50), chromogenic thrombin inhibition assay? Entry: hirudin mutein M 20 (I29E L30Q) (other) VVYTDCTESGQNLCLCEGSVVCGQGNKCEQGSDGEKNQCVTGEGTPKPESHNDGDFEEIPEEYLQ
1.52
